Values compiled from the EternaBench riboswitch data.

System: MS2 coat protein
protocol.notes: apparent Kd, MS2 coat protein; higher = weaker binding; RNA-MaP array
experimental.conditions: ligand present: tryptophan; designed as: OFF switch for tryptophan
Listing of entries alongside the reported apparent Kd.
Quick reminder: number only, in nM, skip the unit.

Reference set, count: 3
GAGGCACGGUCGGCCGCCACUACAGCAGUGGUCCGCCAAGCGAGGUACAUGAGGAUCACCCAUGUUAGGACCGGGACCUGUUUUU: 73.7
CCCACAAGCACGGCCGCCACUAUAUUAAUUACUGUCCUAGAACAUGAGGAUCACCCAUGUUAAUGUAGGACCGGGUGCGGGCCCG: 12.8
CAAUCUACCACCGGCCUACUGUACACUCGCCGAGGACCGGUACGGCCGCCACUCGACGUUCGACAUGAGGAUCACCCAUGUGGGU: 334

Suppose we examine the sequence UUCACGGGCACGGCCGCCACUAACCAACAUGAGGAUCACCCAUGUGUAUUGGACGACCUCUUUGCUAGGACCGGGUGUAUGGUUC ; what apparent Kd value has been reported?
30.5

Could you do the same for CGCUACAUAGCGGCCGCCACUGUCAUGGCUACGAUAGGUCACUCGUACAUGAGGAUCACCCAUGUCAGGACCGGGCUAUCCUCGC , please?
203
